- study system: T1, ALK 001P
- T1 construct: ALK (1-19) is described only as a region comprising a secretory signal, and no cleavage site is stated; Expressed in Expi293 cells and captured on a Protein A chip through its Fc
- test details: SPR, Biacore 8K; ALK 001P captured on Protein A chip, ligand as analyte, 6 concentrations from 20 nM
quantity kind: binding result

Ligand 018P (ligand, also called Ligand 18P) DGHHHHHHGSLQDSEVNQEAKPEVKPEVKPETHINLKVSDGSSEIFFKIKKTTPLRRLMEAFAKRQGKEMDSLTFLYDGIEIQADQTPEDLDMEDNDIIEAHREQIGGLEVLFQGPDKFLKHLTGPLYFSPKCSKHFHRLYHNTRDCTIPAYYKRCARLLTRLAVSPVCMEDKQ; binds
Ligand 012P (ligand) DGHHHHHHGSLQDSEVNQEAKPEVKPEVKPETHINLKVSDGSSEIFFKIKKTTPLRRLMEAFAKRQGKEMDSLTFLYDGIEIQADQTPEDLDMEDNDIIEAHREQIGGLEVLFQGPRVEIVPRDLRMKDKFLKHLTGPLYFSPKCSKHFHRLYHNTRDCTIPAYYKRCARLLTRLAVSPVCMEDKQ; binds
Ligand 020P (ligand) DGHHHHHHGSLQDSEVNQEAKPEVKPEVKPETHINLKVSDGSSEIFFKIKKTTPLRRLMEAFAKRQGKEMDSLTFLYDGIEIQADQTPEDLDMEDNDIIEAHREQIGGLEVLFQGPKHLTGPLYFSPKCSKHFHRLYHNTRDCTIPAYYKRCARLLTRLAVSPVCMEDKQ; binds
